All figures here come from patent US12691070B2.

# Lookup of reported Zeta (mV) keyed by entry
- MEASUREMENT_DESCRIPTION: LNP zeta potential (Zetasizer)
- Type: physicochemical
- DETAILS: LNP with cirRNA (SEQ ID NO: 1)
Units required after the number.

Sample records with Zeta (mV):
INSERT INTO measurements (compound, quantity_kind, val) VALUES
  ('CCCCCCCCC(CCCCCCCC)OC(=O)CCCCCCCN(CCCCCCCCOC(=O)C(CCCCCC)CCCCCCCC)CCNC(=O)OCCN(C)C (stereo not shown)', 'Zeta (mV)', '−0.06404 mV'),
  ('CCCCCCCCC(CCCCCCCC)OC(=O)CCCCCCCN(CCCCCCCCOC(=O)C(CCCCCC)CCCCCCCC)CCCOC(=O)NCCN1CCCC1 (stereo not shown)', 'Zeta (mV)', '6.91 mV'),
  ('CCCCCCCCCCCOC(=O)CCCCCN(CCCCCCCC(=O)OC(CCCCCCCC)CCCCCCCC)CCOC(=O)NCCN1CCOCC1', 'Zeta (mV)', '−10.23 mV');

Noted for "CCCCC/C=C\C/C=C\CCCCCCCCN(CCCCCCCC/C=C\C/C=C\CCCCC)CCOC(=O)NCc1ccncc1" : its Zeta (mV) reads −6.298 mV

====

- System: Aspartate Aminotransferase (AST)
- MEASUREMENT_DESCRIPTION: Liver enzyme elevation in serum, AST
- Format: in vivo
- DETAILS: cirRNA (SEQ ID NO: 1) LNPs; BALB/C mice; intravenous 0.5 MPK; 2 hours
# Lookup of reported AST in Sera (IU/L) 2 hours After 0.5 MPK Injection keyed by entry
Use IU/L as the unit, but write only the number.

Log: Aspartate Aminotransferase (AST), compound CCCCCCCCC(CCCCCCCC)OC(=O)CCCCCCCN(CCCCCCCCOC(=O)C(CCCCCC)CCCCCCCC)CCOC(=O)NCCN(C)C (stereo not drawn) , AST in Sera (IU/L) 2 hours After 0.5 MPK Injection = 176.40

Log: Aspartate Aminotransferase (AST), compound CCCCCCCCC(CCCCCCCC)OC(=O)CCCCCCCN(CCCCCCCCOC(=O)C(CCCCCC)CCCCCCCC)CCCOC(=O)NCCN1CCCCCC1 (stereo not drawn) , AST in Sera (IU/L) 2 hours After 0.5 MPK Injection = 287.33

Log: Aspartate Aminotransferase (AST), compound CCCCCCCCC(CCCCCCCC)OC(=O)CCCCCCCN(CCCCCCCCOC(=O)C(CCCCCC)CCCCCCCC)CCCOC(=O)NCCN1CCCCC1 (stereo not drawn) , AST in Sera (IU/L) 2 hours After 0.5 MPK Injection = 232.67

Log: Aspartate Aminotransferase (AST), compound "CCCCCCCCCCCOC(=O)CCCCCN(CCCCCCCC(=O)OC(CCCCCCCC)CCCCCCCC)CCOC(=O)NCCN1CCCCC1" , AST in Sera (IU/L) 2 hours After 0.5 MPK Injection = 128.43

Log: Aspartate Aminotransferase (AST), compound CCCCCCCCC(CCCCCCCC)OC(=O)CCCCCCCN(CCCCCCCCOC(=O)C(CCCCCC)CCCCCCCC)CCCOC(=O)NCCN(C)C (stereo not drawn) , AST in Sera (IU/L) 2 hours After 0.5 MPK Injection = 333.67

Log: Aspartate Aminotransferase (AST), compound "CCCCC/C=C\C/C=C\CCCCCCCCN(CCCCCCCC(=O)OC(CCCCCCCC)CCCCCCCC)CCCOC(=O)NCCCn1ccnc1" , AST in Sera (IU/L) 2 hours After 0.5 MPK Injection = 247.33
